For each entry below, report its SI T-M, selectivity index (Macrophages CC50/T. cruzi IC50) value.
System: epimastigote form of Trypanosoma cruzi
assayProtocol: Antiproliferative assay, epimastigote form of Trypanosoma cruzi (XTT, 96 h)
Format: cell-based
condition: J774A1 vs epimastigotes

CSC(N)=NN=Cc1c(C(F)(F)F)nn(-c2ccccc2)c1-c1ccc(F)cc1    5.07
Nc1nnc(-c2c(C(F)(F)F)nn(-c3ccccc3)c2-c2ccc(F)cc2)s1    5.99
Nc1nnc(-c2c(C(F)(F)F)nn(-c3ccccc3)c2-c2ccc(Cl)cc2)s1    9.51

Can you give me SI T-M, selectivity index (Macrophages CC50/T. cruzi IC50) for all of these, one by one?
1. COc1ccc(-c2c(C=NN=C(N)SC)c(C(F)(F)F)nn2-c2ccccc2)cc1
2. CSC(N)=NN=Cc1c(C(F)(F)F)nn(-c2ccccc2)c1-c1ccccc1
3. CSC(N)=NN=Cc1c(C(F)(F)F)nn(-c2ccccc2)c1-c1ccc([N+](=O)[O-])cc1
4. COc1ccc(-c2c(C=NNC(N)=S)c(C(F)(F)F)nn2-c2ccccc2)cc1
5. CSC(N)=NN=Cc1c(C(F)(F)F)nn(-c2ccccc2)c1-c1ccc(Br)cc1

1. 6.43
2. 5.23
3. 9.19
4. 6.06
5. 5.71

Hello, the source for this data is paper PMC7576996, in case you need it.
